The measurements presented in this section are drawn from patent US12234231B2.

pIC50: −log10 of the molar value.
Here we list molecules with their recorded pIC50 when tested on Human eIF4E (aa 28-217) (Homo sapiens, UniProt P06730).
Sequence (P06730 28-217): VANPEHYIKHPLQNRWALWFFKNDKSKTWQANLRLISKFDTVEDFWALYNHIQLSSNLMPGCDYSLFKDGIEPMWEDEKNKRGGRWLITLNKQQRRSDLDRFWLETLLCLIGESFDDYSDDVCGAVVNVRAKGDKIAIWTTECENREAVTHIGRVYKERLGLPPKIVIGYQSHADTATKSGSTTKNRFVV
Property: pIC50

COCCOc1ccc(-c2nc(Nc3ncc(-c4cccs4)cc3C(=O)O)sc2CC(C)C)cc1F [I-30]: 6.00 to 6.30
CNCCNC(=O)c1cc(-c2cccs2)cnc1Nc1nc(-c2ccc(OCCOC)c(F)c2)c(CC(C)C)s1 [I-56]: < 6.00
COCCOc1cc(-c2nc(Nc3ncc(-c4cccs4)cc3C(=O)O)sc2CC(C)(C)C)ccc1Cl [I-95]: ≥ 6.30
